Here, each record is paired with measured Emax data.
# Study System: UniProtKB Q96EB6
# Experiment Summary: Mass spectrometry based SIRT1 activation assay (TAMRA/5TMR-labeled 20mer peptide)
# Assay type: biochemical
# Condition Context: 25 min; percent maximum fold activation of SIRT1; read-out: % FOLD ACT.
Structures can show the parent of a compound that is named as a salt.
Quantity Measured: Emax

[
  {
    "Compound": "O=C(Nc1ccccc1-c1cn2c(CN3CCNCC3)csc2n1)c1cccc(-c2ccccc2)c1",
    "Quantity Measured": "Emax",
    "Measured Value": "≥ 200%"
  },
  {
    "Compound": "CCCNc1cc(-c2nc3c(NC(=O)c4ccc(CN5CCNCC5)cc4)cccc3[nH]2)ccn1",
    "Quantity Measured": "Emax",
    "Measured Value": "≥ 200%"
  },
  {
    "Compound": "O=C(Nc1ccccc1-c1cn2c(CN3CCNCC3)csc2n1)c1nc2ncccc2o1",
    "Quantity Measured": "Emax",
    "Measured Value": "< 200%"
  },
  {
    "Compound": "Cc1nc(-c2cccnc2)sc1C(=O)Nc1ccccc1-c1cn2c(CN3CC4CC3CN4)csc2n1 (centres unmarked)",
    "Quantity Measured": "Emax",
    "Measured Value": "≥ 200%"
  },
  {
    "Compound": "CCCNc1cc(-c2nc3c(NC(=O)c4cccc(C5CCNC5)c4)cccc3[nH]2)ccn1 (centres unmarked) [Compound 15, hydrochloride]",
    "Quantity Measured": "Emax",
    "Measured Value": "≥ 200%"
  },
  {
    "Compound": "CC(C)Cc1nc(NC2CCNCC2)cc(C(=O)Nc2ccccc2-c2nc3cc(COC4CCNCC4)cnc3s2)n1",
    "Quantity Measured": "Emax",
    "Measured Value": "≥ 200%"
  },
  {
    "Compound": "CN(C)CCCNc1ccc(-c2nc3cc(NC(=O)c4cccc(CN5CCNCC5)c4)ccc3[nH]2)cn1",
    "Quantity Measured": "Emax",
    "Measured Value": "< 200%"
  },
  {
    "Compound": "CCCCc1nc(NCCNC)cc(C(=O)Nc2ccccc2-c2nc3cc(COC4CCNCC4)cnc3s2)n1",
    "Quantity Measured": "Emax",
    "Measured Value": "≥ 200%"
  }
]

---

# Study System: SIRT1 (Homo sapiens)
# Sequence (Q96EB6 whole entry): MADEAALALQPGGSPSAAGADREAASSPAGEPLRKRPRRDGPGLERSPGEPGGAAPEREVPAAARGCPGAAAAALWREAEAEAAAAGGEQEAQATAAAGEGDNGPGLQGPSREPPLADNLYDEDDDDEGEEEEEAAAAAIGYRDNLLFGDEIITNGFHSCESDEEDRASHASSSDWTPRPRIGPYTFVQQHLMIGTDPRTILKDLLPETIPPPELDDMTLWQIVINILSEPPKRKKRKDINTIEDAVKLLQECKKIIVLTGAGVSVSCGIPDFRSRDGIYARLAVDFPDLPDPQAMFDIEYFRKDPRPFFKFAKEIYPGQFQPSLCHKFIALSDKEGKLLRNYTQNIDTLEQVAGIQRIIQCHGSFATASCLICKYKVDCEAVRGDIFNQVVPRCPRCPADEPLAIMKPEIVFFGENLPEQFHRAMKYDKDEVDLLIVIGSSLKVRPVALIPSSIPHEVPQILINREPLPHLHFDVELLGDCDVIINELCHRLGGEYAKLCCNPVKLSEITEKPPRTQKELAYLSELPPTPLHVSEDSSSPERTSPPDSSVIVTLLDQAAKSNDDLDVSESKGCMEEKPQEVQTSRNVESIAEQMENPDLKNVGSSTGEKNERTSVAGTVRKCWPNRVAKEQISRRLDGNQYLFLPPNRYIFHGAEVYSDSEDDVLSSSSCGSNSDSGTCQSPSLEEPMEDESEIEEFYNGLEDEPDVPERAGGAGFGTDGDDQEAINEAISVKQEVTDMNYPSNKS
# Experiment Summary: Steady-state kinetic parameters for SIRT1 substrates (PNC1-GDH-coupled assay)
# Format: biochemical
# Condition Context: 25° C., pH 7.5, [NAD+]o = 2 mM, [SIRT1]o 50-1,000 nM
Peptide text beside a SMILES is read from it. * marks the point of attachment. AMC = Cc1cc(=O)oc2cc(N*)ccc12
Please use true whenever kc is not below 0.1 s⁻¹, and false whenever it is.

[
  {
    "Compound": "CC(=O)NCCCC[C@H](NC(=O)[C@H](CCCCN)NC(=O)[C@H](Cc1c[nH]cn1)NC(=O)[C@H](CCCNC(=N)N)NC(C)=O)C(=O)N[C@@H](Cc1ccccc1)C(N)=O [RHKK^AcF, Ac-Arg-His-Lys-Lys^Ac-Phe-NH2] (Ac-RHKK(Ac)F-NH2)",
    "Label": "true"
  },
  {
    "Compound": "CC(=O)NCCCC[C@H](NC(=O)[C@H](CCCCN)NC(=O)[C@H](Cc1c[nH]cn1)NC(=O)[C@H](CCCNC(=N)N)NC(C)=O)C(=O)Nc1ccc2c(C)cc(=O)oc2c1 [RHKK^Ac-AMC, Ac-Arg-His-Lys-Lys^Ac-AMC] (Ac-RHKK(Ac)-{AMC})",
    "Label": "false"
  },
  {
    "Compound": "CC(=O)NCCCC[C@H](NC(=O)[C@H](CCCCN)NC(=O)[C@H](Cc1c[nH]cn1)NC(=O)[C@H](CCCNC(=N)N)NC(C)=O)C(=O)N[C@@H](Cc1c[nH]c2ccccc12)C(N)=O [RHKK^AcW, Ac-Arg-His-Lys-Lys^Ac-Trp-NH2] (Ac-RHKK(Ac)W-NH2)",
    "Label": "true"
  },
  {
    "Compound": "CC(=O)NCCCC[C@H](NC(=O)[C@H](CCCCN)NC(=O)[C@H](Cc1c[nH]cn1)NC(=O)[C@H](CCCNC(=N)N)NC(C)=O)C(N)=O [RHKK^Ac, Ac-Arg-His-Lys-Lys^Ac-NH2] (Ac-RHKK(Ac)-NH2)",
    "Label": "true"
  },
  {
    "Compound": "CC(=O)NCCCC[C@H](NC(=O)[C@H](CCCCN)NC(=O)[C@H](Cc1c[nH]cn1)NC(=O)[C@H](CCCNC(=N)N)NC(C)=O)C(=O)N[C@@H](C)C(N)=O [RHKK^AcA, Ac-Arg-His-Lys-Lys^Ac-Ala] (Ac-RHKK(Ac)A-NH2)",
    "Label": "true"
  }
]
